# System: U2OS
# METHOD NOTES: Multiplex assay against U2OS
# Type: toxicity, cell-based
# CONDITION: human, 12 h, 10 µM, compound concentration 10 uM, replicate 1
ASSAY METRIC: Total Cell Count
Lab note: write the figure by itself, no unit.

Lab entry: U2OS assay, compound CCN1CCN(Cc2ccc(Nc3ncc(F)c(-c4cc(F)c5nc(C)n(C(C)C)c5c4)n3)nc2)CC1.CS(=O)(=O)O , Total Cell Count = 151

Lab entry: U2OS assay, compound COCC(=O)NC/C=C/c1ccc2ncnc(Nc3ccc(Oc4ccc(C)nc4)c(C)c3)c2c1 , Total Cell Count = 167

Lab entry: U2OS assay, compound S=C(NCCCc1c[nH]cn1)NCCCN(Cc1ccc(Cl)c(Cl)c1)c1ccc(Br)cn1 , Total Cell Count = 133

Lab entry: U2OS assay, compound Cc1cn(-c2cc(NC(=O)c3ccc(C)c(Nc4nccc(-c5cccnc5)n4)c3)cc(C(F)(F)F)c2)cn1 , Total Cell Count = 185

* * *

# Tested on: HEK-293T
# METHOD NOTES: Multiplex assay against HEK293T
# Type: toxicity, cell-based
# CONDITION: human, 24 h, 10 µM, compound concentration 10 uM, replicate 2
// boundary case: Population Fragmented Nuclei (%) equal to 8% maps to class 0; strictly smaller maps to class 1

For this compound, is Population Fragmented Nuclei (%) lower than 8%? COc1cc2ncnc(Nc3ccc(F)c(Cl)c3)c2cc1NC(=O)/C=C/CN1CCCCC1 [DACOMITINIB ANHYDROUS]
class 0

For this compound, is Population Fragmented Nuclei (%) lower than 8%? O=C1N/C(=N/c2ccccc2F)S/C1=C\c1ccc(C(=O)O)cc1
class 1

For this compound, is Population Fragmented Nuclei (%) lower than 8%? COC(=N)c1nc2ccc3ncnc(Nc4ccc(OC)cc4F)c3c2s1
class 0

For this compound, is Population Fragmented Nuclei (%) lower than 8%? Cc1cc(C)c(S(=O)(=O)N(Cc2ccc(-c3cccc(S(C)(=O)=O)c3)cc2)Cc2ccc(C(F)(F)F)o2)c(C)c1
class 1

For this compound, is Population Fragmented Nuclei (%) lower than 8%? C=CCn1c(=O)c2cnc(Nc3ccc(N4CCN(C)CC4)cc3)nc2n1-c1cccc(C(C)(C)O)n1
class 0

* * *

# Tested on: Fibroblast
# METHOD NOTES: Multiplex assay against human fibroblast
# Assay type: toxicity, cell-based
# CONDITION: 12 h, 10 µM, compound concentration 10 uM, replicate 1
// boundary case: Population Normal (%) equal to 80% maps to False; strictly smaller maps to True

For this molecule, is Population Normal (%) lower than 80%? NC(=O)c1cccc(-c2cc(Nc3ccc(OC(F)(F)F)cc3)ncn2)c1
False

For this molecule, is Population Normal (%) lower than 80%? Cc1cc(C)c(S(=O)(=O)N(Cc2ccc(-c3cccc(S(C)(=O)=O)c3)cc2)Cc2ccc(C(F)(F)F)o2)c(C)c1
True

For this molecule, is Population Normal (%) lower than 80%? CCn1cc(-c2ccnc3[nH]c(-c4cccc(CN(C)C)c4)cc23)c(-c2ccc(NC(=O)N(C)C)cc2)n1
True

For this molecule, is Population Normal (%) lower than 80%? O=C(Nc1ccc(-n2nc(-c3cccnc3)cc2C(F)(F)F)cn1)c1ccc(-c2ccccc2)c(F)c1
False

For this molecule, is Population Normal (%) lower than 80%? CN1C2CCC1CC(OC(c1ccc(F)cc1)c1ccc(F)cc1)C2.Cl (stereo not drawn)
False

For this molecule, is Population Normal (%) lower than 80%? COc1cc2ncnc(Nc3ccc(F)c(Cl)c3)c2cc1NC(=O)/C=C/CN1CCCCC1 [DACOMITINIB ANHYDROUS]
False

For this molecule, is Population Normal (%) lower than 80%? O=C(Nc1cccnn1)N1CCC(=Cc2cccc(Oc3ccc(C(F)(F)F)cn3)c2)CC1
False

For this molecule, is Population Normal (%) lower than 80%? O=C1NC(=O)C(c2cnc3ccccn23)=C1c1cn2c3c(cc(F)cc13)CN(C(=O)N1CCCCC1)CC2
False

For this molecule, is Population Normal (%) lower than 80%? Cc1ccc(C(=O)Nc2cccc(C(F)(F)F)c2)cc1Nc1nc(-c2cccnc2)nc2c1cnn2C
False

For this molecule, is Population Normal (%) lower than 80%? CN[C@@H]1C[C@H]2O[C@@](C)([C@@H]1OC)n1c3ccccc3c3c4c(c5c6ccccc6n2c5c31)C(=O)NC4
True

For this molecule, is Population Normal (%) lower than 80%? COc1ccc(S(=O)(=O)N(CCO)c2ccccc2CN(C)C/C=C/c2ccc(Cl)cc2)cc1.O=P(O)(O)O
False

For this molecule, is Population Normal (%) lower than 80%? C=C1/C(=C\C=C2/CCC[C@]3(C)[C@@H]([C@H](C)/C=C/[C@H](C)C(C)C)CC[C@@H]23)C[C@@H](O)C[C@@H]1O
False

For this molecule, is Population Normal (%) lower than 80%? O=C(Nc1ccc(Cl)cc1)Nc1cccc(-c2cccc(N3CCCC3)n2)c1
True

For this molecule, is Population Normal (%) lower than 80%? CCOC(=O)c1c(C)[nH]c2ccc3c(c12)CN1CCc2cc(OC)ccc2C1O3 (stereo not drawn)
False

For this molecule, is Population Normal (%) lower than 80%? CCn1c(=O)c(-c2ccc(-c3cncs3)cc2Cl)cc2cnc(Nc3ccc(N4CCN(C)CC4)cc3)nc21
True

For this molecule, is Population Normal (%) lower than 80%? COCC(=O)NC/C=C/c1ccc2ncnc(Nc3ccc(Oc4ccc(C)nc4)c(C)c3)c2c1
False

For this molecule, is Population Normal (%) lower than 80%? C=CCn1c(=O)c2cnc(Nc3ccc(N4CCN(C)CC4)cc3)nc2n1-c1cccc(C(C)(C)O)n1
False

For this molecule, is Population Normal (%) lower than 80%? CCOc1cc2ncc(C#N)c(Nc3ccc(OCc4ccccn4)c(Cl)c3)c2cc1NC(=O)/C=C/CN(C)C
True

For this molecule, is Population Normal (%) lower than 80%? O=C(Cc1ccc(-c2ccc(OCCN3CCOCC3)cc2)cn1)NCc1ccccc1
False

For this molecule, is Population Normal (%) lower than 80%? Cn1nc(C(F)(F)F)cc1-c1cnc(N2CCc3cc(S(=O)(=O)Nc4c(F)cc(Cl)cc4F)cc(N4CCCC4=O)c32)nc1
False

For this molecule, is Population Normal (%) lower than 80%? CNC(=O)c1ccc(Nc2nc(OC3CCCC3)c3c(-c4ccc5nc(C)oc5c4)c[nH]c3n2)c(OC)c1
False

For this molecule, is Population Normal (%) lower than 80%? Cc1cn(-c2cc(NC(=O)c3ccc(C)c(Nc4nccc(-c5cccnc5)n4)c3)cc(C(F)(F)F)c2)cn1
True

For this molecule, is Population Normal (%) lower than 80%? CCCS(=O)(=O)c1nc(NC2CC2)cc(-c2ccc3c(ccn3C3CC(C)(C)NC(C)(C)C3)c2)n1
False

For this molecule, is Population Normal (%) lower than 80%? COC(=N)c1nc2ccc3ncnc(Nc4ccc(OC)cc4F)c3c2s1
False

For this molecule, is Population Normal (%) lower than 80%? CCCS(=O)(=O)Nc1ccc(F)c(C(=O)c2c[nH]c3ncc(Cl)cc23)c1F
False

For this molecule, is Population Normal (%) lower than 80%? O=C(Nc1ccc(-c2ccnc(Nc3ccc(N4CCOCC4)cc3)n2)cc1)[C@@H]1CCCN1
False
